subject.of.test: Stb5 (UniProt P38699)
Sequence: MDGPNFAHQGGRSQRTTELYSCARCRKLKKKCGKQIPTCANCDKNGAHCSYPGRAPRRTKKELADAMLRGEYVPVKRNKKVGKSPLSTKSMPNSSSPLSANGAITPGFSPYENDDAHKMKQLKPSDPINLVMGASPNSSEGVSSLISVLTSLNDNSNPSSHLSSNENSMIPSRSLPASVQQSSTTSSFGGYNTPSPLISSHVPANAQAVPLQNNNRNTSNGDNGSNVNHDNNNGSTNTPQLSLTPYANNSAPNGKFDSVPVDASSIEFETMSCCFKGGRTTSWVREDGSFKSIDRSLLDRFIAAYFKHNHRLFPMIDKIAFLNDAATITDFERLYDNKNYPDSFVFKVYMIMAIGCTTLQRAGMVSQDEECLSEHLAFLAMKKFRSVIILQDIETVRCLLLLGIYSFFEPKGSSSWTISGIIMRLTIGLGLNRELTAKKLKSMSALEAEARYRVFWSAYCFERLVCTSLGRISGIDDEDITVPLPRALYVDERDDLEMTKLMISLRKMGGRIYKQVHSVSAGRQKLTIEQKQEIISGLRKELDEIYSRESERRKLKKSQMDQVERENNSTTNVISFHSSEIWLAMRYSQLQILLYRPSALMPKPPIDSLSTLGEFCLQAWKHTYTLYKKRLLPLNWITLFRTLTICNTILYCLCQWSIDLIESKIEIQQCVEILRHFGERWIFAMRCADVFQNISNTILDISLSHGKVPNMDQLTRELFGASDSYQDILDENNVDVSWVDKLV
method.description: PBM E-score (8-mer binding enrichment) (E-score (-0.5 to 0.5)); higher = stronger / more preferred TF binding
condition.set: protein concentration: 200 nM; construct: GST-full length
The full ranking holds about 33,000 sequences; the median of “E-score (-0.5 to 0.5)” is about -0.054, and the highest 2% start at about 0.35. The list comes from a sample in which the highest values are over-represented; it also holds close analogues and randomly drawn sequences.
reported.endpoint: PBM E-score
# print the numeric value only

seq: CGAGTGTC
PBM E-score: -0.0644
//
seq: ACGGACAC
PBM E-score: 0.215

INPUT: Given the sequence "GAAGCCAC" , what is its reported PBM E-score?
OUTPUT: 0.0166

INPUT: Given the sequence "ACGGACCG" , what is its reported PBM E-score?
OUTPUT: 0.297
